Measured GI50 of individual entries
- Test system: NCI-H522
- protocol: NCI tumour cell line growth inhibition, 48 h
Active and inactive are the calls of the source. No stated cut-off is given here; in the data, active = GI50 up to about 1.1 µM and inactive = higher.

Recorded results for 4 compounds are shown here.
CN(C)CCCn1cnc2ncccc2c1=O: > 100 µM (inactive)
O=C(NCCCCCCNCc1cccc2ccccc12)Nc1cccc2ccccc12: > 100 µM (inactive)
CCCCCCCC(=O)OCC(C[As](=O)(O)O)OC(=O)CCCCCCC (stereo not given): 13.3 µM (inactive)
O=C1CC(=O)NC(NNS(=O)(=O)c2ccc(Cl)cc2)=N1: > 100 µM (inactive)

Kindly review the next compound as well.
### Prompt Hi! What's the reported GI50 for Cc1ccc(S(=O)(=O)C2=Cc3ccccc3C2(O)c2ccccc2)cc1 (stereo not given) on NCI-H522?
### Response 21.5 µM (inactive)

* * *

- Tested on: TK-10
- protocol: NCI tumour cell line growth inhibition, 48 h
Active and inactive are the calls of the source. Cut-off read from the data, not from the text of the source: active = GI50 up to about 1.1 µM and inactive = higher.
quantity-measured: GI50

Cc1ccc(NC=O)c(-c2c(N)[nH]c(=S)[nH]c2=O)c1: > 100 µM (inactive)
Clc1ccc2c(NCCCCN3OC3c3ccccc3)ccnc2c1 (stereo not drawn): 10.3 µM (inactive)
COc1ccc2c(-c3csc(-c4c[nH]c5ccc(Br)cc45)n3)c[nH]c2c1: 49 µM (inactive)
CS(=O)(=O)N1CC(CCl)c2ccc(O)cc21 (stereo not drawn): 2.32 µM (inactive)

### Prompt Name the reported GI50 value associated with the compound `CN(C)/C=C/c1nnc([N+](=O)[O-])s1`
### Response 25.9 µM (inactive)

### Prompt Name the reported GI50 value associated with the compound `CCOC(=O)C(Cc1c(C=O)[nH]c2ccccc12)(NC(=O)c1ccccc1)C(=O)OCC`
### Response 22.4 µM (inactive)

### Prompt Name the reported GI50 value associated with the compound CC(=O)OCC1OC(On2ccccc2=S)C(OC(C)=O)C(OC(C)=O)C1OC(C)=O (stereo not drawn)
### Response > 100 µM (inactive)

### Prompt Name the reported GI50 value associated with the compound `O=C(NC(N1CCN(c2cc3c(cc2F)c(=O)c(C(=O)O)cn3C2CC2)CC1)(C(F)(F)F)C(F)(F)F)c1ccccc1`
### Response 27.4 µM (inactive)

* * *

- Tested on: Hs-578T
- protocol: NCI tumour cell line growth inhibition, 48 h
Calls of active or inactive are those of the source. Rule as the data show it: active = GI50 up to about 1.1 µM and inactive = higher.
Measured GI50 of individual entries

Recorded results for 7 compounds are shown here.
CCCCCCCCCCCC[C@H](O)[C@H]1CC[C@H]([C@H](O)CCCC[C@H](O)CCCCC[C@@H](O)CC2=C[C@H](C)OC2=O)O1: 5.43 µM (inactive)
Clc1ccc2c(NCCCCN3OC3c3ccccc3)ccnc2c1 (stereo not drawn): 14.6 µM (inactive)
COc1c(O)cc2c(c1O)C(=O)/C(=C/c1ccc(O)cc1)CO2: 30.2 µM (inactive)
CC1=NN(c2nc(N)nc(CCl)n2)CC1: 26.3 µM (inactive)
CCOC(=O)/C(=C\c1ccnc2ccccc12)P(=O)(OCC)OCC: 3.21 µM (inactive)
COC1OC2COC(=O)c3cc(O)c(O)c(O)c3-c3c(cc(O)c(O)c3O)C(=O)OC2C(O)C1O (stereo not drawn): > 100 µM (inactive)
CCOc1ccc(C(=O)/C=C2/Nc3ccccc3N/C2=C/C(=O)c2ccc(OCC)cc2)cc1: 37.6 µM (inactive)

Kindly review the next compound as well.
### Prompt Name the reported GI50 value associated with the compound COC(=O)c1ccc2c(c1)CC1(C2)Cc2ccc3c(c2C1)CCC3 (stereo not drawn)
### Response 37.9 µM (inactive)
